# experiment_description: CCTE_Shafer_MEA_dev_interburst_interval_mean: CCTE's Neural Network Formation Assay for Mean Interburst Interval, Shafer Lab (AID 2284046);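 further: well-mean interburst interval of bursting electrodes as AUC over four recording days; curve fitted for decrease in interburst interval relative to DMSO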
# Method: CCTE_Shafer_MEA_dev assay is conducted using Axion Biosystems 48 well microelectrode array (MEA) plates and Maestro recording system. Each well of the MEA plate contains a grid of 16 microelectrodes embedded in the culture surface. Electrically active cells, such as neurons, can be cultured over the electrodes, and electrical activity in these cells can be recorded extracellularly. […]
Activity calls are given as the source filed them. How the source made its calls: active means hit-call score of the fitted dose curve at least 0.9, where 1 is the maximum; inactive means score below 0.9.
metric: AC50

Cc1ccc(OP(=O)(Oc2ccc(C)cc2)Oc2ccc(C)cc2)cc1 (tested in a mixture with another compound) ... inactive
O=[As]O ... 1.69 µM (active)
CP(=O)(O)CC[C@H](N)C(=O)O ... inactive
C[C@H](N)Cc1ccccc1 ... inactive
C=CCN1CC[C@]23c4c5ccc(O)c4O[C@H]2C(=O)CC[C@@]3(O)[C@H]1C5 ... inactive

Lab note: next molecule to report on.
Prompt: Can you share its AC50? I mean this molecule: CC1(C)[C@H](C=C(Cl)Cl)[C@H]1C(=O)OCc1c(F)c(F)cc(F)c1F
Completion: 13.9 µM (active)

###

# assayed_system: X-box-binding protein 1 (Homo sapiens) (UniProt P17861)
# Sequence (P17861 whole entry, looked up): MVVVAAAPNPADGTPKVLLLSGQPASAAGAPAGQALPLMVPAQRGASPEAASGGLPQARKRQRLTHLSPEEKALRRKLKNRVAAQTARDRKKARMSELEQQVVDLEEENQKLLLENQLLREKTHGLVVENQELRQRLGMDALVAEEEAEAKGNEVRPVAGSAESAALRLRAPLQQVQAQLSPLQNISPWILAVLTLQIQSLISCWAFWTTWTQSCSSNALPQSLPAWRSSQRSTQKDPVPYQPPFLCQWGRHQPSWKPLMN
# experiment_description: ATG_Xbp1_CIS: Attagene CIS-FACTORIAL HepG2 Assay for human X-box Binding Protein 1 (XBP1) (AID 2282972)
# setup_conditions: HepG2 XBP1 cis-element reporter, Attagene multiplex; actives raise or lower the signal
Activity calls are given as the source filed them. How the source made its calls: active means hit-call score of the fitted dose curve at least 0.9, where 1 is the maximum; inactive means score below 0.9.
Assign a class; possible classes are active, inactive

These recorded examples may help you get a feel for the data.
CCN(CC)C(=S)S ... inactive
ClC1=C(Cl)[C@]2(Cl)[C@@H]3[C@@H](Cl)[C@H](Cl)C[C@@H]3[C@@]1(Cl)C2(Cl)Cl ... inactive
O=[N+]([O-])c1cc([N+](=O)[O-])c2ccccc2c1 ... inactive
O=P1(NCCCl)OCCCN1CCCl (configuration not stated) ... inactive
CC(C)(O)C#N ... inactive

Prompt: What did the test return for COC(=O)c1ccccc1S(=O)(=O)NC(=O)Nc1nc(C)cc(C)n1 ?
Completion: inactive

Prompt: Please answer likewise for c1ccc(Nc2ccc3ccccc3c2)cc1
Completion: inactive

Prompt: Please answer likewise for O=C(O)c1cc[c]([Hg][Cl])cc1
Completion: active

Prompt: Please answer likewise for O=[N+]([O-])c1ccc(Cl)cc1
Completion: inactive

Prompt: Please answer likewise for CSc1nc(N=[N+]=[N-])nc(NC(C)C)n1
Completion: inactive

Prompt: Please answer likewise for CC1(C)[C@H](C(=O)O[C@H](C#N)c2cccc(Oc3ccccc3)c2)[C@@H]1C=C(Br)Br
Completion: inactive

Prompt: Please answer likewise for CC(C)CCCCCCCOP(=O)(Oc1ccccc1)Oc1ccccc1
Completion: inactive

###

# assayed_system: Cellular tumor antigen p53 (Homo sapiens) (UniProt P04637)
# Sequence (P04637 whole entry, looked up): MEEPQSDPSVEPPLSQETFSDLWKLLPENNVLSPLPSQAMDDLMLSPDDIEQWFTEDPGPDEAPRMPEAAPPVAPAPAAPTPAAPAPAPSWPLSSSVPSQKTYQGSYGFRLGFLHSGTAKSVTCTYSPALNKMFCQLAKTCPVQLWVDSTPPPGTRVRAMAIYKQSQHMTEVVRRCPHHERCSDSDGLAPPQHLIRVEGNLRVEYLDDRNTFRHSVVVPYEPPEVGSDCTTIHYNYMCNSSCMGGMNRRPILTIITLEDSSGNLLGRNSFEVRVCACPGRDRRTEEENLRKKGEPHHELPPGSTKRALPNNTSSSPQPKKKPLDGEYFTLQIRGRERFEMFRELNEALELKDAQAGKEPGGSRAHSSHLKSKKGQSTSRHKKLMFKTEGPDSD
# experiment_description: TOX21_p53_BLA_p4_ratio: Tox21 HCT-116 p53 Agonism Beta-lactamase Assay, Ratio, Phase 4 (AID 2283601)
Results filed as inconclusive are left out. Activity calls are given as the source filed them. How the source made its calls: active means hit-call score of the fitted dose curve at least 0.9, where 1 is the maximum; inconclusive means response in the unintended direction; inactive means score below 0.9.
Assign a class; possible classes are true (active), false (inactive)

These recorded examples may help you get a feel for the data.
COc1cccc2c1cc([N+](=O)[O-])c1c(C(=O)O)cc3c(c12)OCO3 ... true
C[C@@H](Cc1ccccc1)N(C)C ... false
C[C@]12Cc3nonc3C[C@@H]1CC[C@@H]1[C@@H]2CC[C@@]2(C)[C@H]1CC[C@]2(C)O ... false
C[C@]12CC[C@H]3[C@@H](CCC4=CC(=O)CC[C@@H]43)[C@@H]1CC[C@@H]2OC(=O)CCc1ccccc1 ... false
COc1ccccc1N1CCNCC1 ... false

Prompt: What did the test return for CCCCCCC(=O)O[C@H]1CC[C@H]2[C@@H]3CC[C@H]4CC(=O)C=C(C)[C@]4(C)[C@H]3CC[C@]12C ?
Completion: false

Prompt: Please answer likewise for O=C(O)CC[N+](=O)[O-]
Completion: false

Prompt: Please answer likewise for CCC(Cl)[N+](=O)[O-] (stereo unspecified)
Completion: false

Prompt: Please answer likewise for N#CC1(N=NC2(C#N)CCCCC2)CCCCC1
Completion: false

Prompt: Please answer likewise for O=C(O)c1cc[c]([Hg][Cl])cc1
Completion: false

Prompt: Please answer likewise for [S]=[Sb](=[S])[S][Sb](=[S])=[S]
Completion: false

###

# experiment_description: BSK_LPS_PGE2: BioMAP Diversity Plus: LPS Assay for Prostaglandin E2 (PGE2) Biomarker Activity (AID 2283082)
# setup_conditions: primary human HUVEC with PBMC; actives raise or lower the signal
Calls of active or inactive are those of the source. Rule for the calls: active = hit-call score of the fitted dose curve at least 0.9, where 1 is the maximum; inactive = score below 0.9.
Assign a class; possible classes are 1 = active, -1 = inactive

These recorded examples may help you get a feel for the data.
CC(C)CCCCCCCOC(=O)c1ccccc1C(=O)OCCCCCCCC(C)C ... -1
O=C(CCl)c1ccccc1 ... 1
CC(=O)/C=C/c1ccccc1 ... -1
Clc1ccc(-c2ccccc2)cc1 ... 1
CC(C)(c1cc(Cl)c(O)c(Cl)c1)c1cc(Cl)c(O)c(Cl)c1 ... 1

Prompt: What did the test return for N#CCCCCC#N ?
Completion: -1

Prompt: Please answer likewise for O=S(=O)(c1ccccc1)c1ccccc1
Completion: -1

Prompt: Please answer likewise for C=CCN(CC=C)C(=O)C(Cl)Cl
Completion: -1

###

# experiment_description: CCTE_Shafer_MEA_dev_per_burst_interspike_interval: CCTE's Neural Network Formation Assay for Burst Interspike Interval, Shafer Lab (AID 2284044);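 further: mean spike spacing inside bursts as AUC over recordings on days 5 7 9 12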
# Experimental: CCTE_Shafer_MEA_dev assay is conducted using Axion Biosystems 48 well microelectrode array (MEA) plates and Maestro recording system. Each well of the MEA plate contains a grid of 16 microelectrodes embedded in the culture surface. Electrically active cells, such as neurons, can be cultured over the electrodes, and electrical activity in these cells can be recorded extracellularly. […]
Active and inactive are the calls of the source. The calls were made as follows: active = hit-call score of the fitted dose curve at least 0.9, where 1 is the maximum; inactive = score below 0.9.
Assign a class; possible classes are active, inactive

These recorded examples may help you get a feel for the data.
[CH3][Sn]([CH3])[CH3] ... active
CC(=O)[O-].[Tl+] ... inactive
C=CCN1CC[C@]23c4c5ccc(O)c4O[C@H]2C(=O)CC[C@@]3(O)[C@H]1C5 ... inactive
C#CCN(C)[C@H](C)Cc1ccccc1 ... inactive

Prompt: What did the test return for CC1(C)C(C=C(Cl)c2ccc(Cl)cc2)C1C(=O)OC(C#N)c1ccc(F)c(Oc2ccccc2)c1 (stereo not drawn) ?
Completion: active

Prompt: Please answer likewise for CC(C)CCCCCCCOP(=O)(Oc1ccccc1)Oc1ccccc1
Completion: inactive

Prompt: Please answer likewise for CN[C@]1(c2ccccc2Cl)CCCCC1=O
Completion: inactive

Prompt: Please answer likewise for CC1(C)[C@H](C(=O)O[C@H](C#N)c2cccc(Oc3ccccc3)c2)[C@@H]1C=C(Br)Br
Completion: active

Prompt: Please answer likewise for CC1(C)[C@@H](C=C(Cl)Cl)[C@@H]1C(=O)O[C@@H](C#N)c1ccc(F)c(Oc2ccccc2)c1
Completion: inactive

Prompt: Please answer likewise for CCOP(=O)(O)OCC (tested in a mixture with another compound)
Completion: inactive

Prompt: Please answer likewise for CN1C(=O)CN=C(c2ccccc2)c2cc(Cl)ccc21
Completion: inactive

###

# assayed_system: human Phosphatase and Tensin Homolog (PTEN), PTEN (gene 5728) (UniProt P60484)
# Sequence (P60484 whole entry, looked up): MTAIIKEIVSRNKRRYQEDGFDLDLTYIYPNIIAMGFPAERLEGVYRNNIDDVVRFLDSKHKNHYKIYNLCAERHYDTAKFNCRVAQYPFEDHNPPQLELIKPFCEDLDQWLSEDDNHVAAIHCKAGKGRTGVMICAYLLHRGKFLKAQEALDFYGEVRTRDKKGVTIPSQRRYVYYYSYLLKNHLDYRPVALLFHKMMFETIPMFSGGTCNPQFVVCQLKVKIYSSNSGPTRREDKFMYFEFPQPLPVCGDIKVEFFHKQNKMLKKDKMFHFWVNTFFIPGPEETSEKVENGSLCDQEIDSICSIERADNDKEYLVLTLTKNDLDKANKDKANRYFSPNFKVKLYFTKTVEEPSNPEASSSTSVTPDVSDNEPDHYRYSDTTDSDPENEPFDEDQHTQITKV
# experiment_description: NVS_ENZ_hPTEN: NovaScreen (NVS) Enzymatic Assay for human Phosphatase and Tensin Homolog (PTEN) (AID 2283203)
Records with an inconclusive call do not appear. The source made the active and inactive calls. How the source made its calls: active means hit-call score of the fitted dose curve at least 0.9, where 1 is the maximum; inconclusive means response in the unintended direction; inactive means score below 0.9.
Assign a class; possible classes are t for active, f for inactive

Prompt: What did the test return for Fc1ccc(Br)cc1 ?
Completion: f

Prompt: Please answer likewise for O=C(OCCCCCOC(=O)c1ccccc1)c1ccccc1
Completion: f

Prompt: Please answer likewise for O=C(O)C[C@H](O)C[C@H](O)/C=C/c1c(C2CC2)nc2ccccc2c1-c1ccc(F)cc1
Completion: t

Prompt: Please answer likewise for CCC(=O)O
Completion: f

Prompt: Please answer likewise for Clc1ccc(-c2ccccc2)cc1
Completion: f

Prompt: Please answer likewise for CC/C(=C(/CC)c1ccc(O)cc1)c1ccc(O)cc1
Completion: f

Prompt: Please answer likewise for CCCCCCCCC(C)=O
Completion: f

Prompt: Please answer likewise for Cc1nc(C)nc(N2C[C@@H](C)N(c3ccnc([C@@H](C)O)n3)[C@@H](C)C2)n1
Completion: f

Prompt: Please answer likewise for C=C(C)CCCC
Completion: f

###

# assayed_system: Cellular tumor antigen p53 (Homo sapiens) (UniProt P04637)
# experiment_description: TOX21_p53_BLA_p5_ratio: Tox21 HCT-116 p53 Agonism Beta-lactamase Assay, Ratio, Phase 5 (AID 2283599)
# Protocol: TOX21_p53_BLA_p5 is a cell-based, single-readout assay that uses HCT116, a human intestinal cell line, […] in a 1536-well plate.TOX21_p53_BLA_p5_ratio is an assay readout measuring reporter gene via receptor activity and designed using inducible reporter (beta lactamase induction) detected with GAL4 b-lactamase reporter gene. […] This assay endpoint, TOX21_p53_BLA_p5_ratio, was analyzed in the positive analysis fitting direction relative to DMSO as the negative control and baseline of activity. […]
Records with an inconclusive call do not appear. Activity calls are given as the source filed them. How the source made its calls: active means hit-call score of the fitted dose curve at least 0.9, where 1 is the maximum; inconclusive means response in the unintended direction; inactive means score below 0.9.
Assign a class; possible classes are Yes = active, No = inactive

These recorded examples may help you get a feel for the data.
O=CC(Br)(Br)Br ... Yes
CCCCC(CC)COC(=O)OOC(C)(C)C (stereo not drawn) ... No
O=c1oc2ccccc2c(O)c1Cc1c(O)c2ccccc2oc1=O ... Yes
CN1C(=O)CN=C(c2ccccc2)c2cc([N+](=O)[O-])ccc21 ... No

Prompt: What did the test return for II ?
Completion: No

Prompt: Please answer likewise for OCCSCSCCO
Completion: No
